The following compounds are shown together with reported IC90 values.
Tested on: M. tuberculosis H37Rv growth inhibition
Experiment: M. tuberculosis H37Rv growth inhibitors, H37Rv strain (AID 1626)
Conditions: measured here: IC90 against H37Rv
A number alone suffices; assume µM.

Compound: CN1C[C@@H]2C(c3ccc(C(F)(F)F)cc3)C3(c4cccnc4)CC2(C3)[C@H]1c1ccccc1 (some centres not stated)
Target under test: M. tuberculosis H37Rv growth inhibition
IC90 (µM): 21.4

Consider the compound shown here: Cc1ccc(-c2nnc(N3CCN(C(=O)c4ccco4)CC3)c3ccccc23)cc1 What is its recorded IC90? 13.8

And what about the compound CCc1ccc(C(=O)CSC2=C(C#N)C(c3ccco3)C(C(C)=O)=C(C)N2)cc1 (configuration not stated) ? 23.3

And what about the compound O=C(CC(=O)c1ccccc1O)c1cccc(F)c1 ? 29.2

And what about the compound O=C(/C=C/c1ccc([N+](=O)[O-])s1)N1CCCCC1 ? 10.6

And what about the compound Oc1c(CN2CCc3ccccc3C2)cc(Cl)c2cccnc12 ? 9.8
